// provenance: ChEMBL document CHEMBL1212778

Tested on: Escherichia coli
Protocol: Inhibition of CsgG biogenesis in Escherichia coli K-12 at 2.5 mM after […] by polyacrylamide gel-shift assay
Format: functional, organism-based
Active and inactive are the calls of the source. The calls are words filed in the database; no cut-off is given here.

{"columns": ["Chemical structure", "inhibition"],
 "data": [
  ["O=C(O)[C@@H]1CSc2c(C3CC3)c(Cc3cccc4ccccc34)cc(=O)n21", "inactive"],
  ["O=C(O)[C@@H]1CSc2c(-c3cccc(C(F)(F)F)c3)c(Cc3cccc4ccccc34)cc(=O)n21", "inactive"],
  ["O=C(O)[C@@H]1CSc2c(-c3ccc(F)c(F)c3)c(Cc3ccc4ccccc4c3)cc(=O)n21", "inactive"],
  ["O=C(O)[C@@H]1CSc2c(-c3ccc(Br)cc3)c(Cc3cccc4ccccc34)cc(=O)n21", "inactive"]
]}
